// provenance: patent US9725442B2

CYP2C19 (Homo sapiens (Human), UniProt P33261): recorded IC50 for assorted compounds
Sequence (P33261 whole entry): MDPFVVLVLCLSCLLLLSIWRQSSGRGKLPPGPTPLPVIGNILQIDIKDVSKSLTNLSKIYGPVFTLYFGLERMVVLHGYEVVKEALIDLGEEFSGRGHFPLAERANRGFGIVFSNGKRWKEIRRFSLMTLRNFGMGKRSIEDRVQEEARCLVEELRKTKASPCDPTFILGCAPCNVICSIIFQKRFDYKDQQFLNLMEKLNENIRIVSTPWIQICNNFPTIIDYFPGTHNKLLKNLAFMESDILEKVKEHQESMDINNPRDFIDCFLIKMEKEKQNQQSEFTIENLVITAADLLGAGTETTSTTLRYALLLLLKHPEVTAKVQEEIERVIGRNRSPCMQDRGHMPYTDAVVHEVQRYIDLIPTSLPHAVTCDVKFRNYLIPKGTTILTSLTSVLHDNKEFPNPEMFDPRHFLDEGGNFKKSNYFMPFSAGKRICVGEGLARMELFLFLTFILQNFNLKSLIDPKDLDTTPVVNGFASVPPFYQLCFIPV
MEASURED_ENDPOINT: IC50

INSERT INTO assay_data (structure_string, result) VALUES
  ('CC(C)Oc1ccc(S(=O)(=O)N2C[C@H](n3nc(CC(=O)O)c4ccc(F)cc43)C[C@H]2C#N)cc1', '> 20 µM'),
  ('CC(C)Oc1ccc(S(=O)(=O)N2CC[C@H](n3nc(CC(=O)O)c4ccc(F)cc43)[C@@H](C)C2)cc1', '> 20 µM'),
  ('CCOc1ccc(S(=O)(=O)N2C[C@@H](C)[C@@H](n3nc(CC(=O)O)c4ccccc43)C2)cn1', '> 20 µM');

====

# TARGET_UNDER_TEST: UniProtKB Q9Y5Y4
# ASSAY_PROTOCOL: CRTH2 receptor binding inhibitory activity ([3H]-PGD2 displacement, membranes of CRTH2-expressing K562 cell)
# RUN_CONDITIONS: [3H]-PGD2 displacement, membrane of CRTH2-expressing K562 cell; read-out: Ki
Entries annotated with measured Ki
MEASURED_ENDPOINT: Ki (nM)

INSERT INTO assay_data (structure_string, numeric_result) VALUES
  ('CC(C)Oc1ccc(S(=O)(=O)N2C[C@@H](C)[C@@H](n3nc(CC(=O)O)c4ccc(C(F)(F)F)cc43)C2)cn1', 7.4),
  ('CC(C)Oc1ccc(S(=O)(=O)N2C[C@@H](C)[C@@H](n3nc(CC(=O)O)c4cc5c(cc43)OCO5)C2)cc1', 50),
  ('CC(C)Oc1ccc(S(=O)(=O)N2C[C@@H](C)[C@@H](n3cc(CC(=O)O)c4cccnc43)C2)cc1', 5.6);

====

Entries annotated with measured Ki
# TARGET_UNDER_TEST: CRTH2 (Homo sapiens (Human))
# Sequence (Q9Y5Y4 whole entry): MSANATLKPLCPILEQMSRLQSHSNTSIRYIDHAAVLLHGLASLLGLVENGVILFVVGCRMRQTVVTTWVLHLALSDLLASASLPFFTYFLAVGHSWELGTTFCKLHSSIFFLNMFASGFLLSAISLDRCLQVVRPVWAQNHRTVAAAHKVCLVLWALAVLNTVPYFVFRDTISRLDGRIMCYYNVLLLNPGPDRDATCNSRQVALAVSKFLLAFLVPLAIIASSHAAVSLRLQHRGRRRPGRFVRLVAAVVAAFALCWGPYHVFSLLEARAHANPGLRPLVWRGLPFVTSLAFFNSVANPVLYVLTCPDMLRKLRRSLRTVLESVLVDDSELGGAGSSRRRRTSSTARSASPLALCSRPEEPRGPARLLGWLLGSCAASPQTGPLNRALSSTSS
# ASSAY_PROTOCOL: CRTH2 receptor binding inhibitory activity ([3H]-PGD2 displacement, membranes of CRTH2-expressing K562 cell)
# RUN_CONDITIONS: CRTH2 receptor binding, [3H]-PGD2 displacement, membrane of CRTH2-expressing K562 cell; categorized AAAA/AAA; read-out: Ki
MEASURED_ENDPOINT: Ki

INSERT INTO assay_data (compound, measured_endpoint, result) VALUES
  ('CC(C)Oc1ccc(S(=O)(=O)N2[C@H](C)C[C@H](n3nc(CC(=O)O)c4ccc(F)cc43)C[C@@H]2C)cc1 [Compound I-73]', 'Ki', '100 to 5000 nM'),
  ('COc1ccc(S(=O)(=O)N2C[C@@H](C)[C@@H](n3nc(CC(=O)O)c4ccc(C)cc43)C2)s1 [Compound I-180]', 'Ki', '< 100 nM'),
  ('CCOc1ccc(S(=O)(=O)N2C[C@@H](C)[C@@H](n3nc(CC(=O)O)c4ccc(C(F)(F)F)cc43)C2)cc1 [Compound I-129]', 'Ki', '< 100 nM'),
  ('CCOc1ccc(S(=O)(=O)N2C[C@H](n3nc(CC(=O)O)c4ccccc43)C[C@H]2C#N)cc1 [Compound I-320]', 'Ki', '< 100 nM'),
  ('Cc1ccc2c(c1)c(CC(=O)O)nn2[C@H]1CN(S(=O)(=O)c2ccc(OC(C)C)cc2)C[C@H]1C [Compound I-203]', 'Ki', '100 to 5000 nM'),
  ('CCOc1ccc(S(=O)(=O)N2C[C@@H](C)[C@@H](n3nc(CC(=O)O)c4ccc(Cl)cc43)C2)cc1 [Compound I-137]', 'Ki', '< 100 nM'),
  ('CC(C)Oc1ccc(S(=O)(=O)N2C[C@@H](C)[C@@H](n3nc(CC(=O)O)c4ccccc43)C2)cn1 [Compound I-99]', 'Ki', '< 100 nM'),
  ('COc1ccc(S(=O)(=O)N2C[C@@H](C)[C@@H](n3nc(CC(=O)O)c4ccccc43)C2)nc1 [Compound I-246]', 'Ki', '< 100 nM'),
  ('CC(C)C1CC1S(=O)(=O)N1C[C@@H](C)[C@@H](n2nc(CC(=O)O)c3ccccc32)C1 (some centres unmarked) [Compound I-238]', 'Ki', '< 100 nM'),
  ('CC(C)Oc1ccc(S(=O)(=O)N2C[C@H](n3nc(CC(=O)O)c4ccc(F)cc43)C[C@@H]2Cn2ncnn2)cc1 [Compound I-299]', 'Ki', '100 to 5000 nM'),
  ('CC(C)Oc1ccc(S(=O)(=O)N2C[C@@H](C)[C@@H](n3nc(CC(=O)NC#N)c4ccc(F)cc43)C2)cc1 [Compound I-139]', 'Ki', '< 100 nM'),
  ('CC(C)Oc1ccc(S(=O)(=O)N2C[C@H](n3nc(CC(=O)O)c4ccc(F)cc43)C[C@@H]2c2ncc[nH]2)cc1 [Compound I-363]', 'Ki', '100 to 5000 nM'),
  ('CCOc1ccc(S(=O)(=O)N2C[C@@H](C)[C@@H](n3nc(C(O)C(=O)O)c4ccccc43)C2)cc1 (single isomer, unassigned) [Compound I-306]', 'Ki', '100 to 5000 nM'),
  ('CCOc1ccc(S(=O)(=O)N2C[C@H](C)[C@@H](n3nc(CC(=O)O)c4ccccc43)C2)cc1 [Compound I-198]', 'Ki', '< 100 nM');

====

# TARGET_UNDER_TEST: Human DP1 receptor (Homo sapiens (Human))
# Sequence (Q13258 whole entry): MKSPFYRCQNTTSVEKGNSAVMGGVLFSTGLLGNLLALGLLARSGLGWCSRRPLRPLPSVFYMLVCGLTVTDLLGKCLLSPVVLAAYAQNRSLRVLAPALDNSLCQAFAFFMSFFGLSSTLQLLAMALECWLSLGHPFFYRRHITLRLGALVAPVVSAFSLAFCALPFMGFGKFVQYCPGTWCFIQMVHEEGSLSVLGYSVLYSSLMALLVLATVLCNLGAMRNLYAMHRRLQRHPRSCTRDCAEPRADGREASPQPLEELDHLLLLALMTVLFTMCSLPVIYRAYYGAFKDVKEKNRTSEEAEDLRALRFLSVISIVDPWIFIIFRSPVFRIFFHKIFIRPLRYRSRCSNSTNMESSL
# ASSAY_PROTOCOL: Human DP1 inhibitory activity in DP1-expressing cell (PGD2-induced cAMP)
# Format: cell-based
# RUN_CONDITIONS: category of cAMP IC50, human DP1 receptor expressing Jurkut cell
Entries annotated with measured IC50
MEASURED_ENDPOINT: IC50

INSERT INTO assay_data (compound, measured_endpoint, result) VALUES
  ('CC(C)Oc1ccc(S(=O)(=O)N2C[C@H](n3nc(CC(=O)O)c4ccc(F)cc43)C[C@@H]2COc2ccc(F)cc2)cc1 [Compound I-366]', 'IC50', '< 100 nM'),
  ('CC(C)Oc1ccc(S(=O)(=O)N2C[C@@H](C)[C@@H](n3nc(CC(=O)O)c4ccc(F)cc43)C2)cc1 [Compound I-29]', 'IC50', '< 100 nM'),
  ('CCOc1ccc(S(=O)(=O)N2C[C@@H](C)[C@@H](n3nc(CC(=O)O)c4ccccc43)C2)cn1 [Compound I-96]', 'IC50', '< 100 nM'),
  ('CCOc1ccc(S(=O)(=O)N2C[C@@H](C)[C@@H](n3nc(CC(=O)NO)c4ccccc43)C2)cc1 [Compound I-311]', 'IC50', '100 to 5000 nM'),
  ('CC(C)Oc1ccc(S(=O)(=O)N2C[C@H](n3nc(CC(=O)O)c4ccccc43)[C@](C)(F)C2)cc1 [Compound I-88]', 'IC50', '< 100 nM'),
  ('Cc1ccc(S(=O)(=O)N2C[C@@H](C)[C@@H](n3c(C)c(CC(=O)O)c4ccccc43)C2)cc1 [Compound I-288]', 'IC50', '100 to 5000 nM'),
  ('CCOc1ccc(S(=O)(=O)N2C[C@@H](C)[C@@H](n3nc(CC(=O)O)c4ccccc43)C2)c(/C=C/CO)c1 [Compound I-279]', 'IC50', '100 to 5000 nM');

====

# TARGET_UNDER_TEST: CRTH2 (Homo sapiens (Human))
# ASSAY_PROTOCOL: CRTH2 receptor binding inhibitory activity ([3H]-PGD2 displacement, membranes of CRTH2-expressing K562 cell)
# RUN_CONDITIONS: CRTH2 receptor binding, [3H]-PGD2 displacement, membrane of CRTH2-expressing K562 cell; categorized AAAA/AAA; read-out: Ki
MEASURED_ENDPOINT: Ki

INSERT INTO assay_data (compound, result) VALUES
  ('CC(C)Oc1ccc(S(=O)(=O)N2C[C@H](n3nc(CC(=O)O)c4cccc(F)c43)C[C@@H]2C(F)F)cc1', '100 to 5000 nM'),
  ('CCOc1ccc(S(=O)(=O)N2C[C@@H](C)[C@@H](n3nc(CC(=O)O)c4ccc(OC)cc43)C2)cc1', '< 100 nM'),
  ('CC(C)Oc1ccc(S(=O)(=O)N2C[C@@H](C)[C@@H](n3nc(CC(=O)O)c4ccccc43)C2)nc1', '< 100 nM'),
  ('C=C[C@H]1C[C@@H](n2nc(CC(=O)O)c3ccc(F)cc32)CN1S(=O)(=O)c1ccc(OC(C)C)cc1', '< 100 nM'),
  ('CC(C)Oc1ccc(S(=O)(=O)N2C[C@@H](C)[C@@H](n3nc(CC(=O)NS(C)(=O)=O)c4ccc(F)cc43)C2)cc1', '< 100 nM'),
  ('CC(C)Oc1ccc(S(=O)(=O)N2C[C@H](n3nc(CC(=O)O)c4ccc(F)cc43)C[C@H]2c2ccncc2)cc1', '100 to 5000 nM'),
  ('CC(C)Oc1ccc(S(=O)(=O)N2C[C@@H](C)[C@@H](n3nc(CC(=O)O)c4cc(C#N)ccc43)C2)cc1', '100 to 5000 nM'),
  ('CC(C)Oc1ccc(S(=O)(=O)N2C[C@H](n3nc(CC(=O)O)c4ccc(F)cc43)C[C@@H]2COCCCO)cc1', '100 to 5000 nM'),
  ('CC(C)Oc1ccc(S(=O)(=O)N2C[C@H](n3nc(CC(=O)O)c4ccc(F)cc43)C[C@@H]2Cn2cccn2)cc1', '< 100 nM'),
  ('CSC[C@H]1C[C@@H](n2nc(CC(=O)O)c3ccc(F)cc32)CN1S(=O)(=O)c1ccc(OC(C)C)cc1', '100 to 5000 nM'),
  ('CCOc1ccc(S(=O)(=O)N2C[C@@H](n3nc(CC(=O)O)c4ccccc43)[C@H](C)[C@H]2C#N)cc1', '100 to 5000 nM'),
  ('Cc1ccc2c(CC(=O)O)nn([C@H]3CN(S(=O)(=O)c4ccc(OC(C)C)nc4)C[C@H]3C)c2c1', '< 100 nM'),
  ('CNC(=O)[C@@H]1C[C@@H](n2nc(CC(=O)O)c3ccc(F)cc32)CN1S(=O)(=O)c1ccc(OC(C)C)cc1', '100 to 5000 nM'),
  ('CCOc1ccc(S(=O)(=O)N2C[C@@H](C)[C@@H](n3nc(C(F)C(=O)O)c4ccccc43)C2)cc1 (stereo partly drawn)', '100 to 5000 nM'),
  ('CO/N=C/[C@H]1C[C@@H](n2nc(CC(=O)O)c3ccc(F)cc32)CN1S(=O)(=O)c1ccc(OC(C)C)cc1', '< 100 nM'),
  ('C[C@@H]1CN(S(=O)(=O)c2ccc(F)cc2)C[C@@H]1n1nc(CC(=O)O)c2ccc(F)cc21', '< 100 nM'),
  ('Cc1ccc2c(CC(=O)O)nn([C@@H]3C[C@H](C(F)F)N(S(=O)(=O)c4ccc(OC(C)C)cc4)C3)c2c1', '100 to 5000 nM'),
  ('CC(C)Oc1ccc(S(=O)(=O)N2C[C@H](n3nc(CC(=O)O)c4ccc(F)cc43)C[C@@H]2c2ccccc2)cc1', '< 100 nM'),
  ('Cc1cccc2c1c(CC(=O)O)nn2[C@H]1CN(S(=O)(=O)c2ccc(OC(C)C)cc2)C[C@H]1C', '100 to 5000 nM'),
  ('CCOc1ccc(S(=O)(=O)N2C[C@@H](C)[C@@H](n3nc(CC(=O)O)c4ccccc43)C2)c(CCCO)c1', '< 100 nM'),
  ('COc1ccc(S(=O)(=O)N2C[C@@H](C)[C@@H](n3nc(CC(=O)O)c4ccc(F)cc43)C2)cn1', '< 100 nM'),
  ('CCOc1ccc(S(=O)(=O)N2C[C@@H](C)[C@@H](n3c(C)c(CC(=O)O)c4ccccc43)C2)cc1', '< 100 nM'),
  ('CC(C)Oc1ccc(S(=O)(=O)N2C[C@@H](C)[C@@H](n3nc(CC(=O)O)c4ccc(F)cc43)C2)c(C#N)c1', '< 100 nM'),
  ('CC(C)Oc1ccc(S(=O)(=O)N2C[C@H](n3nc(CC(=O)O)c4ccc(F)cc43)C[C@@H]2c2ccccc2F)cc1', '100 to 5000 nM'),
  ('CCOc1ccc(S(=O)(=O)N2C[C@@H](C)[C@@H](n3nc(CC(=O)O)c4ccc(F)cc43)C2)cc1', '< 100 nM'),
  ('CCOc1ccc(S(=O)(=O)N2C[C@H](C)[C@@H](n3nc(CC(=O)O)c4ccccc43)C2)cn1', '< 100 nM'),
  ('CC(C)Oc1ccc(S(=O)(=O)N2C[C@H](n3nc(CC(=O)O)c4ccc(F)cc43)C[C@@H]2CF)cc1', '< 100 nM');
